# credit: paper PMC7531004

test system: Streptococcus pyogenes SSI-9; assay: Antibacterial activity assay of bead-derived peptides (three concentrations); assay type: cell-based; design: key: +++: inhibition by the 640-fold diluted peptide solution; ++: inhibition by the 160-fold diluted solution; +: inhibition by the 40-fold diluted solution; -: no inhibition; conditions: S. pyogenes, bead-derived peptide solution, three concentrations
Where a SMILES comes first, the peptide text is derived from it. [ ]: non-standard residue; d: D form. The star is where a group is joined. NHCH2CH2OH = OCCN*; For = O=C*
measure name: antibacterial activity

Input line: Requested field: antibacterial activity. Item: CC(C)C[C@@H](NC(=O)[C@H](Cc1c[nH]c2ccccc12)NC(=O)[C@@H](CC(C)C)NC(=O)[C@H](Cc1c[nH]c2ccccc12)NC(=O)[C@H](NC(=O)[C@H](Cc1c[nH]c2ccccc12)NC(=O)[C@H](NC(=O)[C@@H](NC(=O)[C@H](NC(=O)[C@H](C)NC(=O)[C@H](NC(=O)[C@H](C)NC(=O)CNC(=O)[C@@H](NC=O)C(C)C)C(C)C)C(C)C)C(C)C)C(C)C)C(C)C)C(=O)N[C@@H](Cc1c[nH]c2ccccc12)C(=O)NCCO [compound 10649] (For-VGA[dV]A[dV]V[dV]W[dV]W[dL]W[dL]W-NHCH2CH2OH)
Output line: ++

====

conditions: cell viability/%
Where a SMILES comes first, the peptide text is derived from it. [ ]: non-standard residue; d: D form. The star is where a group is joined. NHCH2CH2OH = OCCN*; For = O=C*
Hi there, I'd appreciate the recorded viability for every entry that follows.
Mention the unit after the number when you answer.

# example entries with known answers
Input line: Requested field: viability. Item: CC(C)C[C@@H](NC(=O)[C@H](C)NC(=O)[C@H](NC(=O)[C@H](C)NC(=O)CNC(=O)[C@@H](NC=O)C(C)C)C(C)C)C(=O)N[C@H](C(=O)N[C@H](CC(C)C)C(=O)N[C@@H](Cc1c[nH]c2ccccc12)C(=O)N[C@H](CC(C)C)C(=O)N[C@@H](Cc1c[nH]c2ccccc12)C(=O)N[C@@H](C(=O)N[C@@H](Cc1c[nH]c2ccccc12)C(=O)N[C@H](CC(C)C)C(=O)N[C@@H](Cc1c[nH]c2ccccc12)C(=O)NCCO)[C@H](C)O)C(C)C [compound 2682] (For-VGA[dV]A[dL]V[dL]W[dL]W[dT]W[dL]W-NHCH2CH2OH)
Output line: 100%

Input line: Same thing, different molecule: CC(C)C[C@@H](NC(=O)[C@H](C)NC(=O)CNC(=O)[C@@H](NC=O)C(C)C)C(=O)N[C@@H](C)C(=O)N[C@H](CC(C)C)C(=O)N[C@H](C(=O)N[C@@H](C(=O)N[C@@H](Cc1c[nH]c2ccccc12)C(=O)N[C@H](CC(C)C)C(=O)N[C@@H](Cc1c[nH]c2ccccc12)C(=O)N[C@@H](C(=O)N[C@@H](Cc1c[nH]c2ccccc12)C(=O)N[C@@H](C(=O)N[C@@H](Cc1c[nH]c2ccccc12)C(=O)NCCO)C(C)C)C(C)C)[C@H](C)O)C(C)C [compound 8130] (For-VGA[dL]A[dL]V[dT]W[dL]W[dV]W[dV]W-NHCH2CH2OH)
Output line: 100%

Input line: Same thing, different molecule: CC(C)[C@H](NC=O)C(=O)NCC(=O)N[C@@H](C)C(=O)N[C@@H](C(=O)N[C@@H](C)C(=O)N[C@@H](C(=O)N[C@H](C(=O)N[C@@H](C(=O)N[C@@H](Cc1c[nH]c2ccccc12)C(=O)N[C@@H](C(=O)N[C@@H](Cc1c[nH]c2ccccc12)C(=O)N[C@@H](C(=O)N[C@@H](Cc1c[nH]c2ccccc12)C(=O)N[C@@H](C(=O)N[C@@H](Cc1c[nH]c2ccccc12)C(=O)NCCO)[C@H](C)O)C(C)C)C(C)C)C(C)C)C(C)C)C(C)C)C(C)C [compound 1983] (For-VGA[dV]A[dV]V[dV]W[dV]W[dV]W[dT]W-NHCH2CH2OH)
Output line: 100%

Could you now look at the following molecule, please?
Input line: Requested field: viability. Item: CC(C)C[C@@H](NC(=O)[C@H](C)NC(=O)[C@H](NC(=O)[C@H](C)NC(=O)CNC(=O)[C@@H](NC=O)C(C)C)C(C)C)C(=O)N[C@H](C(=O)N[C@H](CC(C)C)C(=O)N[C@@H](Cc1c[nH]c2ccccc12)C(=O)N[C@@H](C(=O)N[C@@H](Cc1c[nH]c2ccccc12)C(=O)N[C@H](CC(C)C)C(=O)N[C@@H](Cc1c[nH]c2ccccc12)C(=O)N[C@@H](C(=O)N[C@@H](Cc1c[nH]c2ccccc12)C(=O)NCCO)[C@H](C)O)C(C)C)C(C)C [compound 2895] (For-VGA[dV]A[dL]V[dL]W[dV]W[dL]W[dT]W-NHCH2CH2OH)
Output line: 95.1%

====

tested on: Streptococcus pyogenes SSI-9; assay: Antibacterial activity assay of bead-derived peptides (three concentrations); assay type: cell-based; set-up: key: +++: inhibition by the 640-fold diluted peptide solution; ++: inhibition by the 160-fold diluted solution; +: inhibition by the 40-fold diluted solution; -: no inhibition; settings: S. pyogenes, bead-derived peptide solution, three concentrations
Where a SMILES comes first, the peptide text is derived from it. [ ]: non-standard residue; d: D form. The star is where a group is joined. NHCH2CH2OH = OCCN*; For = O=C*
measure name: antibacterial activity

Input line: Requested field: antibacterial activity. Item: CC(C)C[C@@H](NC(=O)[C@H](C)NC(=O)[C@H](NC(=O)[C@H](C)NC(=O)CNC(=O)[C@@H](NC=O)C(C)C)C(C)C)C(=O)N[C@H](C(=O)N[C@@H](C(=O)N[C@@H](Cc1c[nH]c2ccccc12)C(=O)N[C@@H](C(=O)N[C@@H](Cc1c[nH]c2ccccc12)C(=O)N[C@H](CC(C)C)C(=O)N[C@@H](Cc1c[nH]c2ccccc12)C(=O)N[C@@H](C(=O)N[C@@H](Cc1c[nH]c2ccccc12)C(=O)NCCO)[C@H](C)O)C(C)C)C(C)C)C(C)C [compound 7393] (For-VGA[dV]A[dL]V[dV]W[dV]W[dL]W[dT]W-NHCH2CH2OH)
Output line: -

Input line: Same thing, different molecule: CC(C)C[C@@H](NC(=O)[C@H](Cc1c[nH]c2ccccc12)NC(=O)[C@@H](CC(C)C)NC(=O)[C@H](Cc1c[nH]c2ccccc12)NC(=O)[C@H](NC(=O)[C@H](Cc1c[nH]c2ccccc12)NC(=O)[C@H](NC(=O)[C@@H](NC(=O)[C@H](NC(=O)[C@H](C)NC(=O)[C@H](NC(=O)[C@H](C)NC(=O)CNC(=O)[C@@H](NC=O)C(C)C)C(C)C)C(C)C)C(C)C)[C@H](C)O)[C@H](C)O)C(=O)N[C@@H](Cc1c[nH]c2ccccc12)C(=O)NCCO [compound 12293] (For-VGA[dV]A[dV]V[dT]W[dT]W[dL]W[dL]W-NHCH2CH2OH)
Output line: -

Input line: Same thing, different molecule: CC(C)[C@H](NC=O)C(=O)NCC(=O)N[C@@H](C)C(=O)N[C@@H](C(=O)N[C@@H](C)C(=O)N[C@@H](C(=O)N[C@H](C(=O)N[C@@H](C(=O)N[C@@H](Cc1c[nH]c2ccccc12)C(=O)N[C@@H](C(=O)N[C@@H](Cc1c[nH]c2ccccc12)C(=O)N[C@@H](C(=O)N[C@@H](Cc1c[nH]c2ccccc12)C(=O)N[C@@H](C(=O)N[C@@H](Cc1c[nH]c2ccccc12)C(=O)NCCO)C(C)C)C(C)C)C(C)C)C(C)C)C(C)C)C(C)C)C(C)C [compound 4223] (For-VGA[dV]A[dV]V[dV]W[dV]W[dV]W[dV]W-NHCH2CH2OH)
Output line: +

Input line: Same thing, different molecule: CNC(=O)C[C@@H](NC(=O)[C@H](Cc1c[nH]c2ccccc12)NC(=O)[C@H](NC(=O)[C@H](Cc1c[nH]c2ccccc12)NC(=O)[C@H](NC(=O)[C@H](Cc1c[nH]c2ccccc12)NC(=O)[C@@H](CC(C)C)NC(=O)[C@@H](NC(=O)[C@H](NC(=O)[C@H](C)NC(=O)[C@@H](CC(C)C)NC(=O)[C@H](C)NC(=O)CNC(=O)[C@@H](NC=O)C(C)C)C(C)C)C(C)C)C(C)C)C(C)C)C(=O)N[C@@H](Cc1c[nH]c2ccccc12)C(=O)NCCO [compound 6520] (For-VGA[dL]A[dV]V[dL]W[dV]W[dV]W[dD](NHMe)W-NHCH2CH2OH)
Output line: -

====

tested on: Streptococcus pyogenes SSI-9; assay: Antibacterial activity assay of bead-derived peptides (three concentrations); type: cell-based; design: key: +++: inhibition by the 640-fold diluted peptide solution; ++: inhibition by the 160-fold diluted solution; +: inhibition by the 40-fold diluted solution; -: no inhibition; details: S. pyogenes, bead-derived peptide solution, three concentrations
Where a SMILES comes first, the peptide text is derived from it. [ ]: non-standard residue; d: D form. The star is where a group is joined. NHCH2CH2OH = OCCN*; For = O=C*
measure name: antibacterial activity

Input line: Requested field: antibacterial activity. Item: CNC(=O)C[C@@H](NC(=O)[C@H](Cc1c[nH]c2ccccc12)NC(=O)[C@@H](CC(C)C)NC(=O)[C@H](Cc1c[nH]c2ccccc12)NC(=O)[C@@H](CC(C)C)NC(=O)[C@H](Cc1c[nH]c2ccccc12)NC(=O)[C@@H](CC(C)C)NC(=O)[C@@H](NC(=O)[C@@H](CC(C)C)NC(=O)[C@H](C)NC(=O)[C@@H](CC(C)C)NC(=O)[C@H](C)NC(=O)CNC(=O)[C@@H](NC=O)C(C)C)C(C)C)C(=O)N[C@@H](Cc1c[nH]c2ccccc12)C(=O)NCCO [compound 300] (For-VGA[dL]A[dL]V[dL]W[dL]W[dL]W[dD](NHMe)W-NHCH2CH2OH)
Output line: -

Input line: Same thing, different molecule: CC(C)C[C@@H](NC(=O)[C@H](C)NC(=O)[C@H](NC(=O)[C@H](C)NC(=O)CNC(=O)[C@@H](NC=O)C(C)C)[C@H](C)O)C(=O)N[C@H](C(=O)N[C@H](CC(C)C)C(=O)N[C@@H](Cc1c[nH]c2ccccc12)C(=O)N[C@@H](C(=O)N[C@@H](Cc1c[nH]c2ccccc12)C(=O)N[C@H](CC(C)C)C(=O)N[C@@H](Cc1c[nH]c2ccccc12)C(=O)N[C@@H](C(=O)N[C@@H](Cc1c[nH]c2ccccc12)C(=O)NCCO)C(C)C)[C@H](C)O)C(C)C [compound 367] (For-VGA[dT]A[dL]V[dL]W[dT]W[dL]W[dV]W-NHCH2CH2OH)
Output line: -
